methodNotes: Cmax in BALB/C mouse at 25 mg/kg, po by LC/TSQ quantum access mass spectrometry
Type: ADME, organism-based
Design: dose 25 mg/kg, route oral
studyConditions: in vivo
reportedMetric: Cmax (ng/mL)
Numbers only, in ng/mL.

Qu. For the compound `O=c1cc(N2CCN(CC3CCCCC3)CC2)sc2c([N+](=O)[O-])cc(C(F)(F)F)cc12` , what Cmax is on record?
Ans. 588

---

methodNotes: Selectivity index, ratio of IC50 for human HepG2 cells to MIC=>90 for Mycobacterium tuberculosis H37Rv
Format: toxicity
studyConditions: read-out: Selectivity Index
Would you mind telling me the reported selectivity ratio of each entry?

Recorded selectivity ratio, per entry:
smilesRepresentation	reading
O=c1cc(N2CCN(Cc3ccccc3)CC2)sc2c([N+](=O)[O-])cc(C(F)(F)F)cc12	> 2130
O=c1cc(N2CCN(CC3CCCCC3)CC2)sc2c([N+](=O)[O-])cc(C(F)(F)F)cc12	> 4000

Then there is this compound:
Qu. For the compound `O=c1nc(N2CCN(CC3CCCCC3)CC2)sc2c([N+](=O)[O-])cc(C(F)(F)F)cc12` , what selectivity ratio is on record?
Ans. > 1190

Where do the numbers come from? From ChEMBL document CHEMBL4382210.
